Test: yeast display, Sf9 membrane polyspecificity reagent, FACS + sequencing; frameworks hold sequencing errors
PROPERTY LABEL: polyreactivity (PSR sort gate)

# ORDERED RESIDUES, PROPERTY LABEL, REPORTED
records = [
    ("QVQLVESGGGLVQAGGSLRLSCAASGYTFWQYAMGWYRQAPGKERELVATITSRGGSTYYADSVKGRFTISRDNAKNTVYLQMNSLKPEDSAVYYCNARRRYSTRRSDYWGQGTQVTVSS", "polyreactivity (PSR sort gate)", "high polyreactivity"),
    ("QVQLVESGGGLVQAGGSLRLSCAASGSIFVTYAMGWYRQAPGKERELVASISWRGVSTRYADSVKGRFTISRDNAKNTVYLQMNSLKPEDTAVYYCAARVTSHMYYWGQGTQVTVSS", "polyreactivity (PSR sort gate)", "high polyreactivity"),
    ("QVQLVESGGGLVQAGGSLRLSCAASGSTFDGNDMGWYRQAPGKERELVAAITIGGGSTYYADSVKGRFTISRDNAKNTVYLQMNSLKPEDTAVYYCAAVYFYSWEGDGDYWGQGTQVTVSS", "polyreactivity (PSR sort gate)", "low polyreactivity"),
    ("QVQLVESGGGLVQAGGSLRLSCAASGLTFYPYAMGWYRQAPGKESELVAAINWSGTTTYYADSVKGRFTISRDNAKNTVYLQMNSLKPADTAVYYCNADVYYEPTTGYYLWDYDYWGQGTQVTVSS", "polyreactivity (PSR sort gate)", "low polyreactivity"),
    ("QVQLVESGGGLVQAGASLRLRCAASGRTFYYKTMGWYRQAPGKERELVAAITRNGGSTYYADSVKGRFTISRDKAKNTVYLQMKSLKLEDTAVYSCGAEGPSHRLNVRQVKGSDSWGQGTQVSVSS", "polyreactivity (PSR sort gate)", "low polyreactivity"),
    ("KDQLVESGGGLVQAGGSLRLSCAASGLTFGGNAMGWYRQAPGKERELVAGISSSGNTNDADSVKGRFTISRDNAKNTVYLQLNSLKPEDTAVYYCAADENITYPVYDLYYWGQGTQVTVSS", "polyreactivity (PSR sort gate)", "low polyreactivity"),
    ("QVQLVESGGGLVQAGGRLRLSCAPSGIIFQQYAMGWYRQAPGKERELVAAISRGGTRTYYADSVKGRFTISRDNAKNTVYLLMNSLKPEDTAVDYCAADRGYFSYDYWGQGTQVTVSS", "polyreactivity (PSR sort gate)", "high polyreactivity"),
    ("QVQLVESGGGLVQAGGSLRLSCAASGIIFVKYTMGWYRQAPGKERELVAAISRSGGSTYYADSVKGRFTISRDNAKNTVYLQMNSLKPEDTAVYYCNAVSRKVYPGPMDYWGQGTQVTVSS", "polyreactivity (PSR sort gate)", "high polyreactivity"),
    ("QVQLVESGGGLVQAGGSLRLSCAASGSTFWSYTMGWYRQAPWKERDLVARNTGRGGSTYYADSVKGRFTISRDNEKNTVYLLMNSLKTEDTAVYYCAAGGGRYGFYRFDYWRQGTQVTVSS", "polyreactivity (PSR sort gate)", "low polyreactivity"),
    ("QVQLVESGGGLVQAGGSLRLSCAASGSIFGRNAMGWYRQAPGKERELVAAISGRASSTFYADSVKGRFTISRDNAKNTVYLQMNSLKPEDTAVYYCAARNSYGGPTYEHYYWGQGTQVTVSS", "polyreactivity (PSR sort gate)", "high polyreactivity"),
    ("QVPLVESGGGLVQAGGSLRLSCAASGSTFYTYAMGWYRQAPGKERELVATISRGGGRTYYADSVKGRFTISRDNAKYTVYLQMISLKPEDTAVYYCAARLYSSSYNSEQYYYWGQGTQVTVSS", "polyreactivity (PSR sort gate)", "high polyreactivity"),
    ("QVQLVESGGGLVQAGGSLRLSCAASGFTFKYYAMGWYRQAPGKERELVADITRSGGSTYYADSVKGRFTISRDTAKITVYLQMNSLKPEDTAVYYCAVDPVRYPYSYDYWGQGTQVTVSS", "polyreactivity (PSR sort gate)", "high polyreactivity"),
    ("QVQLVESGGGLFQAGGSLRLSCAASGFTFYGYAMAWYRHAPGKERELVAAITFRGDRTYYADSVKGRFTISRDNAKNTVYLQINSLKPEDTAVYYCAAVRPSGWYSYLSLYIVRRGYWGQGTQVTVSS", "polyreactivity (PSR sort gate)", "low polyreactivity"),
    ("QVQLVESGGGLVQAGGSLRLSCAASGRTFEVYTMGWYRQAPGKERELVARIRRGASTNYADSVKGRFTISRDNAKNTVYLQMNSLKPEDTAVYYCNARYTAVAVRWTWPYETQADDYWGQGTQVTVSS", "polyreactivity (PSR sort gate)", "low polyreactivity"),
    ("QVQLVESGGGLVQAGGILRLSCAASGFIFGYYGMGWYRQAPGKERELVAAISRSGGGTFYAVSVKGRFTISRDNAKNTVYLQMNSLKPEDTAVYYCNAKYYRKSGLSGAYPYYYWGQGTQVTVSS", "polyreactivity (PSR sort gate)", "high polyreactivity"),
    ("QVQLLESGGGVVQAGGSLRLSCASSGFTFRINAMGWYRPAPGKERELVAANSGRGGSTYYADSVKGRFTISRDYAKNTVYLQMNSLKPEDTAVYYCAAKGSSSLSYYYWGQGTQVTVSS", "polyreactivity (PSR sort gate)", "high polyreactivity"),
    ("QVQLVESGGGLVQAGGSLRLSCAASGFIFWSYAMGWYRQAPGKERELVAAINTSGDSTYYADSVKGRFTISRDNAKYTVYLQMNSLKPEDTAVYSCAAKSSTRGDYWGQGTQVTVSS", "polyreactivity (PSR sort gate)", "low polyreactivity"),
    ("QVQLVESGGGLVQAGGSLRLSCAASGSIVDFYAMGWYRQSPGTERELVAAIDDIDDSTYYADSVKGRFTISRDNAKNTVYLQMNSLKPEDTAVYYCAAELRPGYRSSYGLIYDYWGQGTQVTVSS", "polyreactivity (PSR sort gate)", "low polyreactivity"),
    ("QVQLVESGGGLVQAGGSLRLICAASGSTFRWNALRWYRQAPGKERELVAAITWSGGSTYYADSVKVRFTISRDNAKNTVYVQMNSLKPEDTAVYYCNACGLFQYDSWGQGTKVTVSS", "polyreactivity (PSR sort gate)", "low polyreactivity"),
    ("QVQLVESGGGLVQAGGSLRLSCAASGITFQRYAMGWYRQAPGKERELVAAISTNGGTTYYADSVKGRFTISRDTAKNTVYLQMNSLKPEDTAVYYCNAESGYVYYIRYNYWGQGTQVTVSS", "polyreactivity (PSR sort gate)", "high polyreactivity"),
    ("QVQLVESGGGLVQAGGSLSLSCAASGRIFNQNAMGWYRQAPGKERELVAAISKSGTRTYYADSVKGRFTISRDNAKNTVYLQMNSLNREDTAVYYCAADYYRRIGGYRYDYDYWGQGTEVTVSS", "polyreactivity (PSR sort gate)", "high polyreactivity"),
]

---

Assay: yeast display, Sf9 membrane polyspecificity reagent, FACS + sequencing; frameworks hold sequencing errors

# ORDERED RESIDUES, polyreactivity (PSR sort gate)
data = [
    ("QVQLVESGGGLVQAGGSLRLSCAASGRTFQRYALGWYRQAPGKERELVAAITSRGGSTYYADSVKGRFTISRDNAKNTDYLQMNSLIPEETAVYYCSARSRRTHSEPQSEMDYWGQGTQVTVSS", "high polyreactivity"),
    ("QVQLVESGGGLVQAGGSLRLICAASGSIFTLYDMGWYRQAPGKERELVAAITSGGSTDYADSVKGRFTISRDNAKNTVYLQMNSLKPEDTAVYYCNAEAYPYWYRGASREYDYWGQGTQVTVSS", "low polyreactivity"),
    ("QVQLVESGGGLVQAGGSLRLSCADSGITFSVYAMGWYRQAPGKERELVASISSGGTSTYYADSVKGRFTISRDNAKNTVYLQMNSQKPEDTAVYYCAAYSYYTGDQYSYDYWGQGTQVTVSS", "low polyreactivity"),
    ("QVQIVESGGGLVQAGGSLRLSCAASGSIFPINAMGWYRQAPGKERELVAVITSGGGGTYYADCVKGRYTISRDNAKNTVYLQMNSLKPEDPAGYYCAKRLSRKWQKFGYWGQGTQVTVSS", "low polyreactivity"),
    ("QVHLVESGGGLVQAGGSLRLSCAASGRIFSLNAMGCDRQAPGKERELVAAISTGGASTYYADSVKGRFTISRDNAKNTVYLQMNSLKPEDTAVYSCAADLGYEYDYWGQGTQVTVSS", "high polyreactivity"),
]

---

Assay: yeast display, Sf9 membrane polyspecificity reagent, FACS + sequencing; frameworks hold sequencing errors

# ORDERED RESIDUES, polyreactivity (PSR sort gate)
data = [
    ("QVQLVESGGGLVQAGGSLRLSCAASGSTFSAYAMGWYRQAPGKERELVAAISKRGGSTYYADSVKGRFTISRDNAKNTVYLQMNSLKPEDTAVYYCNKESLYREFDYWGQGTQVTVSS", "low polyreactivity"),
    ("QVQLVESGVGLVQAGGSLRLSCAASGGIFVPYAMGWYRQAPGKEREWVARIRSGGTTNYADSVKGRFTISRDNAKNTVYLQRNSLKPEDTAVYYCAVAAGIPQRRDYYWGQGTQVTVSS", "high polyreactivity"),
    ("QVQLVESGGGLVQAGGSLRLCCAASGFTFSYYAMGGYRQAPGKERELVAAISRSGGRTYYADSVKGRFTISRDHAKNTVYVQMNSLKPEDTAVYSCAGVYFGSIFVLEYDYWGQGTQVTVSS", "high polyreactivity"),
    ("QVQLVESGGGLVQAGGSLRLSCAASGRIFPTYAMGWYRQAPGKERELVAGITSGGRTNYADSVKGRFTISRDNAKNTVYLQMNSLKPEDTAVYYCAKRVWPRDQYGKRNPRMDYWGQGTQVTVSS", "high polyreactivity"),
    ("QVQLVESGGGLVQAGGSLRLSCAASGSIFPSYAMGWYRQAPGKERELVATIGRGGTTNYADSVKGRFTISRDNAKNTVYLQMNSLKPEDTEVYYCNAERIWRYKYGYDYWGQGTQVTVSS", "high polyreactivity"),
    ("QVQLVESGGGLVQAGGSLRLSCAASGRTFVIYTMGWYRQAPGKERELVAAITQRGGITYYADSVKGRFTISRDNAKNTVYLQMNSLKPEDTAVYYCNSGRTYRRLGDYWGQGTQVTVSS", "high polyreactivity"),
    ("QVQLVESGGGLVQEGRSLRLSCAASGRIFCFNVMGWYRQAPGKERELVATISGRTGSTYYADSVKGRFTISRDNAKNTVYLQMNSLKPEVTAVYYCNAVRTVNDYHYDYWGQVTQVTVSS", "high polyreactivity"),
    ("QEQLVESGGGLDQAGGSLRLICDASGFTFLGYAMGWYRQAPGKERELVAAITSGGRTNYADSVKGRFTISRDNAKNTVYLQMNSLKPEDTAVYYCAAYRWDYYYWGQGTQVTVSS", "high polyreactivity"),
    ("QVQLVESGGGLVQEGGSLRLSCAASGNTLRVYAMGRYRQAPGTERELVAAISSSGGSTYYADSVKGRFTISRDNAKNTVYLQMYSLKPEDTAVYYCAKDNGPWFAYDYWGQGTQVTVSS", "low polyreactivity"),
    ("QVQLVESGGGVFQAGGTLSLSCAASGITFYPNDMGWYRQATGKETELVAAITTNDGDTYYADSVKGRFTISRDNAKNTVYLQMNSLKPEYTAVYYCAADSGSTSEYEYWGQGTQVTVSS", "low polyreactivity"),
    ("QVQLVESGGGLVQAGGSLRLSCAASGNTLRVYALGWYRQAPGKERELVAAISYSSVNTYYADSVKGRFTISRDNAKNTVYLQMNSLKPEDTAVYYCAADYYYYRRTQYDLRGYPYYYWGQGTQVTVSS", "low polyreactivity"),
]
